Tested on: excised human nerve tissue
test protocol: Phage display selection on excised human nerve tissue (Nerve2, Nerve3), NextGen sequence counts
Assay type: binding
test conditions: unique sequence count (relative enrichment); Nerve3 only
Item-by-item account of Count

substance	Count
355 (RVPWQEPYYVVLKP) [compound 355]	419
393 (HINWDKRYAVVITY) [compound 393]	197
440 (DGLYVRSFYVLQHS) [compound 440]	86
389 (HFSSQESNSGGKKW) [compound 389]	230
370 (HFRWDEPYYIANKA) [compound 370]	300
418 (YSLWEDLIFNMQNS) [compound 418]	116
409 (LFAGENGYFTVRQF) [compound 409]	139
421 (QVSLVESRSVLKIL) [compound 421]	110
381 (QHPWEDPYKIFNKY) [compound 381]	240
371 (RDRHEDSKFVMNHS) [compound 371]	290
377 (HVPLPGPYFVLKNY) [compound 377]	263
447 (SAREQGTFYFVNNS) [compound 447]	80
404 (QFYWDQSNYGEQKP) [compound 404]	161
397 (TVPAHNPYYLVKQT) [compound 397]	185
378 (HVKRIETYYVFTKS) [compound 378]	258
429 (QVSSVGPNHVVKKI) [compound 429]	102
392 (LLAWDEQDYFLRKT) [compound 392]	199
410 (QVSWVYPPNDVIVS) [compound 410]	133
388 (HFPWDEAYLVVKNP) [compound 388]	230
426 (QVRGGQPDQVLRLS) [compound 426]	105
368 (HVPLQEADYVLKKF) [compound 368]	315
387 (QILRVHPDYVVVNP) [compound 387]	231
419 (QIPWVEASNVLISF) [compound 419]	115
372 (QVPFAHPYYVVNMS) [compound 372]	288
361 (QRPWEQAYFVVRST) [compound 361]	357
359 (HVAWQEPRYFVKKS) [compound 359]	359
360 (YLFAEELAYNLTKS) [compound 360]	359
402 (QIPLKTPYNVVKKF) [compound 402]	171
406 (QVPWEKPVSFVQKS) [compound 406]	159
366 (QLRLGDLYNVMTKE) [compound 366]	328
399 (QFHCHGACYIVKNS) [compound 399]	180
363 (DVAREKPYYDMKKS) [compound 363]	335
379 (RIHLYQPYSILKNY) [compound 379]	258
382 (DVPWPNAYNFGIKS) [compound 382]	238
415 (QPCADKPYCVHTIT) [compound 415]	123
420 (QFGQENHNHFVRKS) [compound 420]	113
416 (HVWWEEAHYSWKHS) [compound 416]	120
449 (QVPGNELYFVLKQY) [compound 449]	77
430 (QLPWGKPYNVVVYS) [compound 430]	101
354 (QIASEERDNIVKKS) [compound 354]	462
422 (AVQRAKPYYAVQNS) [compound 422]	109
350 (HVRCEEPYCHVRKS) [compound 350]	755
436 (DVPWEQPYFVVRNS) [compound 436]	90
369 (QFPLYDPYEVMPKS) [compound 369]	310
390 (HISGEDPYFILQNS) [compound 390]	212
432 (AYLSEQLNYVMKNS) [compound 432]	98
441 (QFALKGLNGDFQKS) [compound 441]	83
438 (QLRWEDQYAHVEKS) [compound 438]	89
444 (QLLRNLSYDGAKYS) [compound 444]	82
353 (DDIWEVPKYRPKNS) [compound 353]	475
